# TARGET_SYSTEM: FLT3 (Homo sapiens)
# EXPERIMENTAL_DETAILS: Inhibition of FLT3, 33P-ATP kinase assay with filter-binding detection
# Assay type: biochemical
# SETUP_CONDITIONS: 33P-ATP 10 uM, 2 hours at room temperature, filter-binding method
Measured IC50 of individual entries

SMILES_STRING: CCCNc1nc2ccccc2c2c(=O)c3cc(OC)ccc3sc12
QUANTITY_NAME: IC50
RESULT: > 1000 nM

The value of IC50 measured for the compound CCCNc1nc2ccccc2c2c(=O)c3cc(Cl)ccc3sc12 turned out to be > 1000 nM

The value of IC50 measured for the compound NCCNc1nc2ccccc2c2c(=O)c3cc(F)ccc3sc12 turned out to be < 51 nM

The value of IC50 measured for the compound O=c1c2cc(F)ccc2sc2c(NCCCNCCO)nc3ccc(Cl)cc3c12 turned out to be > 1000 nM

The value of IC50 measured for the compound O=c1c2cc(F)ccc2sc2c(NCCNc3ccccn3)nc3ccccc3c12 turned out to be > 1000 nM

The value of IC50 measured for the compound CNCCCNc1nc2ccccc2c2c(=O)c3cc(Cl)ccc3sc12 turned out to be 501 to 1000 nM

The value of IC50 measured for the compound O=c1c2cc(Cl)ccc2sc2c(NCCCNCCO)nc3ccccc3c12 turned out to be > 1000 nM

The value of IC50 measured for the compound NCCCNc1nc2ccccc2c2c(=O)c3cc(F)ccc3sc12 turned out to be < 51 nM

* * *

Measured pIC50 of individual entries
# TARGET_SYSTEM: FLT3 (Homo sapiens, UniProt P36888)
# Sequence (P36888 27-993): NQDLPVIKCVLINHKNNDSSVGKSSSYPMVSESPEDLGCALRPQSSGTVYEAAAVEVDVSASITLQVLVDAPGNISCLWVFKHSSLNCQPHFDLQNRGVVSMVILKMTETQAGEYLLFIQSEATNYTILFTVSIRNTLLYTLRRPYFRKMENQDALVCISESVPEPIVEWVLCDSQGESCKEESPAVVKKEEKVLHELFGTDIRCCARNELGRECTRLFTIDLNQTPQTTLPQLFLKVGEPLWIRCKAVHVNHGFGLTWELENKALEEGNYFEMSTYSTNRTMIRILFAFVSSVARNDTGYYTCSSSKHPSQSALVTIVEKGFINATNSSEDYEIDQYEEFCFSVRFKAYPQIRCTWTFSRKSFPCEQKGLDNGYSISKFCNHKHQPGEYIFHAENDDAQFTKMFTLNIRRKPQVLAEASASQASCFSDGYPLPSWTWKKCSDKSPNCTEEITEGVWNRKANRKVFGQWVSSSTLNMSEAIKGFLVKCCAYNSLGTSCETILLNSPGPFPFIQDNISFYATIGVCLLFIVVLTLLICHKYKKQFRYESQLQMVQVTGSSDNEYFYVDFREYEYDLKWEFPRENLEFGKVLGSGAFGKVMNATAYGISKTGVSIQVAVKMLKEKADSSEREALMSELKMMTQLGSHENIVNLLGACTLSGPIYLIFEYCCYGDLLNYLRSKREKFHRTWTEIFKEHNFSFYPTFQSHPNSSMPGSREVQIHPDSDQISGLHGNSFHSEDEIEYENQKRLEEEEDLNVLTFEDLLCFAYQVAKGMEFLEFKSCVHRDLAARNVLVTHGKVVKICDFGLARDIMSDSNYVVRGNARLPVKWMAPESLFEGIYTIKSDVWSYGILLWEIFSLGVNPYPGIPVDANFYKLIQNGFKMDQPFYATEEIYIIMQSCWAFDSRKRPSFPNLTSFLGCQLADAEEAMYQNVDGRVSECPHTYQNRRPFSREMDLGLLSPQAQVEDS
pIC50: −log10 of the molar value.

Below are worked cases with known answers.
COMPOUND: COCCCNc1nc2ccccc2c2c(=O)c3cc(OC)ccc3sc12 [compound 7743]
pIC50: < 6.00
//
COMPOUND: COCCCNc1nc2ccccc2c2c(=O)c3cc(F)ccc3sc12 [compound 7730]
pIC50: < 6.00
//
COMPOUND: CN(C)CCCNc1nc2ccccc2c2c(=O)c3cc(Cl)ccc3sc12 [compound 7722]
pIC50: < 6.00
//
COMPOUND: CCNc1nc2ccccc2c2c(=O)c3cc(C)ccc3sc12 [compound 7232]
pIC50: < 6.00
//
COMPOUND: O=c1c2cc(F)ccc2sc2c(NCc3cccnc3)nc3ccccc3c12 [compound 7748]
pIC50: < 6.00

Tested on FLT3 (Homo sapiens, UniProt P36888), the item COc1ccc2sc3c(NCCCO)nc4ccccc4c3c(=O)c2c1 [compound 7742] showed pIC50 equal to < 6.00

Tested on FLT3 (Homo sapiens, UniProt P36888), the item Cc1ccc2sc3c(NCCN)nc4ccccc4c3c(=O)c2c1 [compound 7231] showed pIC50 equal to > 7.29

Tested on FLT3 (Homo sapiens, UniProt P36888), the item NCCNc1nc2ccccc2c2c(=O)c3cc(F)cc(Cl)c3sc12 [compound 7248] showed pIC50 equal to 6.70 to 7.29

Tested on FLT3 (Homo sapiens, UniProt P36888), the item NCCCNc1nc2ccc(Cl)cc2c2c(=O)c3cc(F)ccc3sc12 [compound 7403] showed pIC50 equal to < 6.00

Tested on FLT3 (Homo sapiens, UniProt P36888), the item COCCNc1nc2ccccc2c2c(=O)c3cc(F)ccc3sc12 [compound 7745] showed pIC50 equal to < 6.00

Tested on FLT3 (Homo sapiens, UniProt P36888), the item O=c1c2cc(F)ccc2sc2c(N3CCCC3)nc3ccccc3c12 [compound 7747] showed pIC50 equal to < 6.00

* * *

Measured pIC50 of individual entries
# TARGET_SYSTEM: UniProtKB P36888
pIC50: −log10 of the molar value.

Below are worked cases with known answers.
MOLECULE: NCCNc1nc2ccc(F)cc2c2c(=O)c3cc(F)ccc3sc12 [compound 7422]
pIC50: < 6.00
--
MOLECULE: CCNc1nc2ccccc2c2c(=O)c3cc(Cl)ccc3sc12 [compound 7736]
pIC50: < 6.00
--
MOLECULE: COc1ccc2nc(NCCCNCCO)c3sc4ccc(F)cc4c(=O)c3c2c1 [compound 7407]
pIC50: < 6.00
--
MOLECULE: Nc1nc2ccccc2c2c(=O)c3c(Cl)cccc3sc12 [compound 7724]
pIC50: < 6.00
--
MOLECULE: NCCCNc1nc2ccccc2c2c(=O)c3cc(F)cc(F)c3sc12 [compound 7252]
pIC50: 6.30 to 6.70

Tested on UniProtKB P36888, the item O=c1c2cc(F)ccc2sc2c(Nc3ccncc3)nc3ccccc3c12 [compound 7763] showed pIC50 equal to < 6.00

Tested on UniProtKB P36888, the item COc1ccc2sc3c(NCCCN(C)C)nc4ccccc4c3c(=O)c2c1 [compound 7735] showed pIC50 equal to < 6.00

Tested on UniProtKB P36888, the item CCNc1nc2ccccc2c2c(=O)c3cccc(OC)c3sc12 [compound 7245] showed pIC50 equal to < 6.00

Tested on UniProtKB P36888, the item CCNc1nc2ccccc2c2c(=O)c3cccc(F)c3sc12 [compound 7241] showed pIC50 equal to < 6.00

Tested on UniProtKB P36888, the item Cc1ccc2sc3c(NCCCN)nc4ccccc4c3c(=O)c2c1 [compound 7202] showed pIC50 equal to 6.70 to 7.29
